Data credit: patent US20070179122A1

This document collects pKi values reported for human factor Xa (Homo sapiens, UniProt P00742).
pKi: −log10 of the molar value.
measurement_name: pKi

Answered cases to consult:
molecule_smiles: O=C(CCNC(=O)c1ccc(Cl)s1)Nc1ccc(N2CCOCC2=O)c(F)c1
pKi: 7.82
--
molecule_smiles: O=C(NCCC(=O)N1CCc2cc(-n3ccncc3=O)ccc21)c1ccc(Cl)s1
pKi: 7.40

a. O=C(NCC(F)(F)C(=O)Nc1ccc(N2CCOCC2=O)cc1)c1ccc(Cl)s1
b. COC(=O)CN(C(=O)CCNC(=O)c1ccc(Cl)s1)c1ccc(N2CCOCC2=O)cc1
Incoming: Recorded pKi values differ for a and b ; which one is higher? Give the label under which the chosen entry appears.
Outgoing: a
